All figures here come from patent US20240182536A1.

Molecular target: T1, IL-18 receptors on HEK-Blue IL-18 reporter cells (UniProt Q13478 19-541; O95256 20-599, limits assumed); also: unit not given here
T1 sequence (looked up) 1: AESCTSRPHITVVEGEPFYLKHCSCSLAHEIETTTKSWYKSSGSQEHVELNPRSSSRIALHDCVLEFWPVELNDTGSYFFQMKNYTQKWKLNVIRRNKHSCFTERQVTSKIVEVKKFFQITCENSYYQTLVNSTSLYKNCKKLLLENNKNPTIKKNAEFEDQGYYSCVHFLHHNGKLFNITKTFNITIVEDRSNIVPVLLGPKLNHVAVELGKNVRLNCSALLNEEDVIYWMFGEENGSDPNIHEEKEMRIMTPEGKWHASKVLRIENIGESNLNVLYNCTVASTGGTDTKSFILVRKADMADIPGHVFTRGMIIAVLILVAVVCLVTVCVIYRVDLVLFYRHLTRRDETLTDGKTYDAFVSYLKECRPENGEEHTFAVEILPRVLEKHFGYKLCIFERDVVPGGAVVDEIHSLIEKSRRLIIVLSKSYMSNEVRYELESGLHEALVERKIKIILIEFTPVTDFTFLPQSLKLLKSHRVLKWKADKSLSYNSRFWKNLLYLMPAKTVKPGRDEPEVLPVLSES
T1 sequence (looked up) 2: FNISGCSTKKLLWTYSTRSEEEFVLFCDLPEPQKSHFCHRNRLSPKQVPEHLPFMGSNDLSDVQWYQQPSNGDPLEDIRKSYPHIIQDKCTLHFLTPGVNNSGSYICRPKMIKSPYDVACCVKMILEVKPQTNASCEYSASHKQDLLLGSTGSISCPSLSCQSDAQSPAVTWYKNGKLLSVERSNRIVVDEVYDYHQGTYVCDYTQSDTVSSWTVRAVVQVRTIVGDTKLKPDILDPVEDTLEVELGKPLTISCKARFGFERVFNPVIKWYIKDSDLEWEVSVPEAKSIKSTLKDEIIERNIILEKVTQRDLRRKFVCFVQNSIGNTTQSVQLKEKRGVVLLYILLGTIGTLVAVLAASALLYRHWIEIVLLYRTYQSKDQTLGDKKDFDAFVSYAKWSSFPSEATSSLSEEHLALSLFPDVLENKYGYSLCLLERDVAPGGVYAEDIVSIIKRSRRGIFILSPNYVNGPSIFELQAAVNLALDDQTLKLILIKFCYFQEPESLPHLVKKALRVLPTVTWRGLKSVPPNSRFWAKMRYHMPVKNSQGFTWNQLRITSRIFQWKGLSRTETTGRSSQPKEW
Test: cell-based or functional assay

[
  {
    "BINDER": "IL-18 variant G3Q, E6N, K53T, D54A, N91K, R104P (ligand) YFQKLNSKLSVIRNLNDQVLFIDQGNRPLFEDMTDSDMRDNAPRTIFIISMYTASQPRGMAVTISVKSEKISTLSSENKIISFKEMNPPDKIKDTKSDIIFFQPSVPGHDNKMQFESSSYEGYFLASEKERDLFKLILKKEDELGDRSIMFTVQNED",
    "Activity, No BP, DF-500000": 0.08
  },
  {
    "BINDER": "IL-18 variant G3S, E6H, K53Y, D54P, S55Y, T63S, N91A, R104S (ligand) YFSKLHSKLSVIRNLNDQVLFIDQGNRPLFEDMTDSDMRDNAPRTIFIISMYYPYQPRGMAVSISVKSEKISTLSSENKIISFKEMNPPDAIKDTKSDIIFFQSSVPGHDNKMQFESSSYEGYFLASEKERDLFKLILKKEDELGDRSIMFTVQNED",
    "Activity, No BP, DF-500000": 0.09
  },
  {
    "BINDER": "IL-18 variant G3P, E6V, K53A, D54W, S55P, T63S, N91L, R104K, Q154R (ligand) YFPKLVSKLSVIRNLNDQVLFIDQGNRPLFEDMTDSDMRDNAPRTIFIISMYAWPQPRGMAVSISVKSEKISTLSSENKIISFKEMNPPDLIKDTKSDIIFFQKSVPGHDNKMQFESSSYEGYFLASEKERDLFKLILKKEDELGDRSIMFTVRNED",
    "Activity, No BP, DF-500000": 0.18
  }
]
